Tested on: DRAK1;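 also: KINOMEscan kinase panel screen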
Construct: gene STK17A
Recorded conditions: concentration: 1 μM, replicates: in singlicate; n = 1
Each entry below lists one item and its recorded %Inh value.
Answer format: numeric, % implied, no suffix.

Solved entries:
Compound | %Inh, %
O=C(Nc1n[nH]c2nc(-c3ccccc3)c(Cl)cc12)C1CC1 [SB-734909] | 0
Cn1c(=O)c(F)c(Nc2ccc(I)cc2F)c2c(=O)n(OC[C@H](O)CO)cnc21 | 0
Cc1ccc(Oc2ccc(Nc3ncnc4cc[nH]c34)cc2C)cn1 | 0

Result for "COc1ccc(-c2cc3c(C)nc(N)nc3n([C@H]3CC[C@H](OCCO)CC3)c2=O)cn1" , tested on DRAK1, %Inh: 16

Result for "Cc1ccc(-c2ccc3c(ccc4sc5c(c43)NC[C@@H](C)N=C5N(C)C)n2)cn1" , tested on DRAK1, %Inh: 0

Result for "CCC(=O)c1c(-c2ccccc2)c2cc(Cl)ccc2c(=O)n1Cc1cc(S(C)(=O)=O)n(CC(F)F)n1" , tested on DRAK1, %Inh: 0

Result for Nc1ncnc2c1ncn2-c1cccc2ccccc12 [SKF-97184] , tested on DRAK1, %Inh: 7

Result for "CCC(=O)c1c(-c2ccccc2)c2cc(Cl)ccc2c(=O)n1Cc1cc(S(C)(=O)=O)n(CCC(C)(C)O)n1" , tested on DRAK1, %Inh: 14

Result for COc1cccc(C2=C(N(C)c3ccccc3)C(=O)NC2=O)c1 [SB-334865] , tested on DRAK1, %Inh: 0

Hey, just so you know, these numbers are from paper PMC5540273.
